Provenance of the data: patent US20250313612A1

- target-or-system: RSV F protein of recombinant mKate-RSV, subtype A (strain A2) (Respiratory syncytial virus subtype A …, UniProt P03420 26-574)
- test-summary: cell-based or functional assay
Answer each item with its documented Neut IC50 subtype A.
One number for each entry, in µg/mL.

Examples with answers:
>  <binder>
ADI-14489 (antibody, V domains shown) VH: QVQLVQSGSEVKKPGASVKVSCKASGYRFSNYGISWVRQAPGQGLEWMGWISAYNGNIKYGNNLQGRVTVTTDTSTTTAYMEVRSLTSDDTAVYYCARDVPADGVHFMDVWGKGTTVTVSS VL: DIVMTQTPLSLPVTLGQPASISCRSSQSLVHSDTNTYLNWFQQRPGQSPRRLIYKVSNRDSGVPDRFSGSGSGTTFTLKISRVEAEDVGIYYCMQGSHWAPTFGQGTKVEIK

>  <value-type>
Neut IC50 subtype A

>  <output-unit>
µg/mL

>  <readout-value>
0.023

$$$$
>  <binder>
ADI-14482 (antibody, V domains shown) VH: QVQLQQWGAGLVKPSETLSLTCAVSGGSFRGYQWNWFRQPPGKGLEWIGEINHGEYTHYNASLKSRVSLSIDTSKNQFSLNLTSVTAADTAMYFCARASSGTYNFEYWFDPWGQGTLVTVSS VL: SYVLTQPPSVSVAPGKTAWLTCGGNNIGNKRVHWYQQKPGQAPVLVVYDDYGRPSGTSERVSGSNSGNTATLTISRVEAGDEAEYYCQVWDDPSDHAVFGGGTQLTVL

>  <value-type>
Neut IC50 subtype A

>  <output-unit>
µg/mL

>  <readout-value>
0.024

$$$$
>  <binder>
ADI-14503 (antibody, V domains shown, full-length IgG (yeast-expressed); also called Antibody Number 64; Ab# 64) VH: QVQLVQSGGGLVKPGGSLRLSCAASGFSLTNYRMNWVRQAPGKGLEWVSSLKDSSSYIYYADSVKGRFTVSRDDAKNSFFLQMTNVRAEDTAVYYCAREGSDTEYWRLTPPMDVWGNGTTVTVSS VL: QSVLTQPPSVSVAPRQTARITCGEHNIGTKSVHWYQQKPGQAPVLVIYDDSDRPSGIPARFSGSNSGNTATLTISWVEAGDEAVYYCQVWDSGDHPWLFGGGTQLTVL

>  <value-type>
Neut IC50 subtype A

>  <output-unit>
µg/mL

>  <readout-value>
0.016

$$$$
>  <binder>
ADI-14469 (antibody, V domains shown, full-length IgG (yeast-expressed); also called Antibody Number 32; Ab# 32) VH: QVQLVESGPTLVKPTQTLTLTCTFSGFSLTTRGVGVGWVRQPPGKALEFLGLTHWDDDKIYSPSLRRRLTITKDTSKNQVVLALANVDPVDTATYFCVKSDLYDRGGYYLYYFDYWGQGTLVTVSS VL: EIVLTQSPSSLSASVGDRVTITCRASQTIPSYVNWYLQRPGEAPKLLIYGASNLHTGAPPTFIGRGSGADFTLTINTLQPEHFGTYYCQQTFSSPYTFGQGTKVEIK

>  <value-type>
Neut IC50 subtype A

>  <output-unit>
µg/mL

>  <readout-value>
0.05

$$$$
>  <binder>
ADI-14447 (antibody, V domains shown, full-length IgG (yeast-expressed); also called Antibody Number 10; Ab# 10) VH: QVQLVQSGAEMKKPGSSVTVSCKASGVPFTSYTYSWVRQAPGQGLEWMGRVLPVIGSAKYPQKFQGTVTITADKSTSTIYLQLSSLRPEDTAIYFCAGSLLAGYDREFDSWGQGTLVTVSS VL: DIQMTQSPSSLSASVGDRITITCRASQGISNWLAWYQQKPGKAPKSLIYEASTLQSGVSSRFSGSGSGTHFTLTIASLQPEDFATYYCQQYYIYPLTFGGGTKLEIK

>  <value-type>
Neut IC50 subtype A

>  <output-unit>
µg/mL

>  <readout-value>
0.143

$$$$

Quick batch: Neut IC50 subtype A for everything below.
1. ADI-14443 (antibody, V domains shown, full-length IgG (yeast-expressed); also called Antibody Number 6; Ab# 6) VH: QVQLVQSGTEVKKPGSSVKVSCKASGGTFGSYAVIWVRQAPGQGLEWMGHFIPVFATTNKAQKFQGRLTLSTDESTGTVYMELSSLRSEDTAVYFCATKRYCSDPSCHGLWYFDLWGRGTLVTVSS VL: DIQLTQSPLSLPVTPGEPASISCRSSQSLLDSDDGNTYLDWYLQKPGQSPQVLIYMLSYRASGVPDRFSGSGSGTDFTLEISRVEAEDVGVYYCMQRVEFPYTFGQGTKLEIK
2. ADI-14524 (antibody, V domains shown, full-length IgG (yeast-expressed); also called Antibody Number 84; Ab# 84) VH: EVQLVESGGGLVQPGGSLRLSCAASGFSFSDYSMNWVRQAPGKGLEWVSYITPSSRNKFYADSVRGRFTISRDNAENSLYLQMNSLRVEDTAVYYCVRSLHWGAAIERWDVWGQGTTVTVSS VL: EIVLTQSPGTLSLSPGERATLSCRASQSISSSFFAWYQQTPGQAPRLLMYATSSRATGIPDRFSGSGSGTDFTLTISRVEPEDFAVYYCQQSGSSPYTFGQGTKVEIK
3. ADI-14484 (antibody, V domains shown, full-length IgG (yeast-expressed); also called Antibody Number 45; Ab# 45) VH: QVTLKESGPALVRPKQTLTLTCSFSGFSLDTQRTGVNWIRQSPGKALEWLARIDWDGNIYSSTSVRTKLSISKGTSKNQVVLTMTDVDPVDTATYYCARTLYYTSGGYYLNLFDYWGQGTLVTVSS VL: EIVMTQSPPSLSASVGDRVTITCRASQTIPSYVNWYQQISGKAPRLLIYAASLLQSGVPSRFSGSGSGTEFSLTISGLRPEDFGTYYCQQSYSSTPTFGQGTRLEIK
4. ADI-14521 (antibody, V domains shown) VH: QVQLVQSGTEVKKPGASVKVSCLTSGYTFTHFGISWVRQAPGQGLEWMGWFSAYNGNTKYAQKFQGRITLTIDTSTSIAYLELRSLRSDDTAVYYCARDPPSLTAAGTLDYWGQGTLVTVSS VL: DIRLTQSPLSLPVTLGQPASISCSSNQSLVYSDGNTYLSWFQQRPGQSPRRLIYKVSDRDSGVPDRFSGSGSGTDFTLKISRVEAEDVGVYYCMQATDWPRTFGQGTKVEIK

Out:
1. 0.047
2. 6.05
3. 0.448
4. 0.083
